# Test system: SK-MEL-28 melanoma
# test-details: NCI tumour cell line growth inhibition, 48 h
Record form. Attribute: TGI. Fill in for each entry.

Please look at this compound and report its TGI: O=C(Cn1c(=O)c(-c2ccccc2)nc2ccccc21)Nc1ccc(F)cc1
> 100 µM

State its TGI: c1csc(-c2cn3nc(-c4c[nH]c5ccccc45)sc3n2)c1
44 µM

Specify TGI for NC(=O)c1cc2ccc(O)cc2oc1=Nc1ccccc1 and stop.
> 100 µM

Read the entry COc1cccc(-c2nn(-c3ccccc3)cc2-c2ccnc(NCCCNC(=O)Nc3ccc(Cl)c(Cl)c3)c2)c1 and write its reported TGI.
4.16 µM

Item Cc1ccc([N+](=O)[O-])cc1NC(=O)/C(=N/NC(=S)NN)C1SC(=S)NC1=O (centres undefined) : provide TGI
> 100 µM

State, in one line, measured TGI of COc1cc([C@@H]2c3cc4c(cc3[C@@H](OC(=O)c3ccc(N)cc3)C3COC(=O)[C@@H]32)OCO4)cc(OC)c1O (some centres undefined)
> 95 µM

Return value of TGI for input C=CCOC(=O)NC1C(OC(C)[C@@H](NC(=O)OCc2ccccc2)C(=O)OC(C)(C)C)OC(COC(C)=O)C(OC(C)=O)C1OC(C)=O (some centres undefined) , no commentary.
> 100 µM

For the compound CC(C)OCC1CC(CC(=O)Nc2nncs2)C(=O)O1 (centres undefined) , give its measured TGI value.
> 100 µM

Query TGI for CCCCc1ccc(Nc2nc(SC)c3[nH]cnc3n2)cc1
> 100 µM

Identify measured TGI corresponding to COC(=O)C1CN=CN1CCc1ccccc1 (centres undefined)
> 100 µM

Report TGI for Cc1cc2c(cc1Cl)S(=O)(=O)OC(c1ccc([N+](=O)[O-])cc1)=N2
> 100 µM

Fill in TGI for record COc1ccc(-n2cnc3c2NC(C)(C)N=C3C(N)=O)c(OC)c1
> 100 µM

Retrieve TGI measured for CCOc1ccc(/C(Cl)=C(\C=O)c2ccc(OC)c(OC)c2)cc1OCC and print it.
> 100 µM

Provide one value: measured TGI of Nc1cccc(/C=C/C(=O)N2CCN(CCOC(c3ccccc3)c3ccccc3)CC2)c1
28.9 µM

Provide TGI value for the following compound: CC1=CC(=O)c2ccccc2C1=O
16.6 µM

// Input: CCCNC(=O)CCC(C)C1CCC2C3C(C[C@H](OC(C)=O)[C@]12C)[C@@]1(C)CCC2(C[C@H]1C[C@H]3OC(C)=O)OOC1(CC[C@]3(C)C4C[C@H](OC(C)=O)[C@]5(C)C(C(C)CCC(=O)NCCC)CCC5C4[C@H](OC(C)=O)C[C@@H]3C1)OO2 (some centres undefined) . Output its TGI only.
> 100 µM

Find the measured TGI of CC1=NN(c2cccc(Cl)c2)C2(SCC(=O)N2c2nc3ccccc3s2)/C1=C\c1cccs1 (centres undefined) and report it.
85.6 µM

Give a short answer stating reported TGI for CC(=O)OCC1OC(OC2CC3C(C)(C)C(OC(C)=O)CC[C@]3(C)C3CCC45CC4(CCC5[C@@H](C)C[C@H](O)C(O)C(C)(C)O)[C@]23C)C(O)C(O)C1O (some centres undefined) .
> 10 µM

// Input: CC(C)(C)c1cc(C2=NNC(c3ccccc3)C2)cc(C(C)(C)C)c1O (centres undefined) . Output its TGI only.
31.5 µM

Report measured TGI; entry is COC(=O)c1sc(=S)sc1SCc1ccc(CSc2sc(=S)sc2C(=O)OC)cc1
> 100 µM

Provide TGI value for the following compound: C1COCCN1.C1COCCN1.NC1CCCCC1N.[Cl-].[Pt+2] (centres undefined)
> 100 µM

Identify the reported TGI for the following entry. CC(C)(C)OC(=O)N1CCC(C(=O)O)CC1
> 100 µM

Note down TGI recorded for O=C(C[n+]1ccc2ccccc2c1)c1ccc2ccc3ccccc3c2c1
9.08 µM

For the compound O=c1[nH]nc(NNc2ccccc2)c2nnn(C3CCCCC3)c12 , give its reported TGI.
> 100 µM

Retrieve TGI measured for CCOP(=O)(OCC)C(Nc1ccc(Br)cc1)c1cccc([N+](=O)[O-])c1 (centres undefined) and print it.
60 µM

Given the compound CCC1CN(C(=O)c2ccccc2)C(Cc2c[nH]c3ccccc23)C(=O)C1CC(=O)OC (centres undefined) , write its reported TGI.
> 100 µM

# return recorded TGI for entry Cn1c2ccc3cc2c(=S)c2cc(ccc21)OCCOCCOCCOCCOCCO3
> 10 µM

Identify the reported TGI for the following entry. O=C(O/C(=C(/N=Nc1ccccc1)c1ccccc1)c1ccccc1)c1ccccc1
> 100 µM

Answer with the recorded TGI for the compound listed here: COCC(O)Cn1ccnc1[N+](=O)[O-] (centres undefined)
> 100 µM

Let me know recorded TGI for O=C(OCN1C(=O)C2C3C=CC(C2C1=O)C1C2C(=O)N(COC(=O)C4CCCN4)C(=O)C2C31)C1CCCN1 (centres undefined) , thanks.
> 100 µM

Recall and state the measured TGI for O=C1c2cccc(NCCN=Cc3cc([N+](=O)[O-])ccc3O)c2C(=O)c2c(NCCN=Cc3cc([N+](=O)[O-])ccc3O)cccc21 .
> 100 µM

Give the reported TGI for this compound. c1ccc(C(c2ccccc2)c2cccnc2)cc1
> 100 µM

For the compound CCC1CN2C(=N1)c1ccccc1-c1cc(Cl)ccc12 (centres undefined) , give its reported TGI.
18.4 µM

Consider the compound O=C(c1cccs1)N(C(=S)OC12CC3CC(CC(C3)C1)C2)c1ccccc1 and give its recorded TGI.
> 100 µM

---

# Test system: UACC-62 melanoma
# test-details: NCI tumour cell line growth inhibition, 48 h; in the data active = GI50 below about 0.43 µM; inactive = the rest
Select the matching outcome among active, inactive

Could you check what this test reported for COc1cc2c(cc1O)CC[C@@H]1[C@@H]2CC[C@]2(C)[C@@H](OCCN(C)C)CC[C@@H]12 ?
active

Which outcome was assigned to CCCNC(=O)CCC(C)C1CCC2C3C(C[C@H](OC(C)=O)[C@]12C)[C@@]1(C)CCC2(C[C@H]1C[C@H]3OC(C)=O)OOC1(CC[C@]3(C)C4C[C@H](OC(C)=O)[C@]5(C)C(C(C)CCC(=O)NCCC)CCC5C4[C@H](OC(C)=O)C[C@@H]3C1)OO2 (stereo not given in full) in this test?
inactive

What did the test return for NC(=O)c1ccc(I)c(N=O)c1 ?
inactive

Which result was noted for this molecule in the test: COc1cccc(-n2nc(C)c3c(N/N=C(\C)c4ccncc4)ncnc32)c1
inactive

Test call for this molecule, please: CCC(C)[C@H]1O[C@]2(C=C[C@@H]1C)C[C@@H]1C[C@@H](C/C=C(\C)[C@@H](OC3C[C@H](OC)C(O[C@H]4C[C@H](OC)[C@@H](O)[C@H](C)O4)[C@H](C)O3)[C@@H](C)/C=C/C=C3\CO[C@@H]4[C@H](O)C(C)=C[C@@H](C(=O)O1)[C@]34O)O2 (stereo not given in full)
inactive

---

# Tested on: K-562 leukemia
# test-details: NCI tumour cell line growth inhibition, 48 h; in the data active = GI50 below about 0.43 µM; inactive = the rest
Select the correct class. Options are active, inactive and nothing else.

Tell me the recorded outcome of this test for COc1cc(Nc2c(C#N)cnc3cc(OCCCN4CCN(C)CC4)c(OC)cc23)c(Cl)cc1Cl .
active

Assay result, entry COc1cccc(C2=C(c3c(C)n(C)c4ccccc34)C(=O)NC2=O)c1 — outcome?
inactive

What call does the record list for CC1(N)CCN(c2cccnc2NC(=O)c2nc(-c3ncccc3C(F)(F)F)cnc2N)CC1 ?
inactive

Call for entry CN[C@H](C#Cc1c(F)ccc2c1/C(=C/c1[nH]ccc1OC)C(=O)N2)CO :
inactive

Recorded test call requested for COc1ccc(C(=O)/C=C/c2cccc([N+](=O)[O-])c2)c(OC)c1
inactive

Give the logged outcome of this assay for the following compound: CC(=O)OC[C@]12CC[C@@H](C(=O)CBr)[C@@H]1[C@H]1CC[C@@H]3[C@@]4(C)CCCNC(C)(C)[C@@H]4CC[C@@]3(C)[C@]1(C)CC2
inactive

So what was the verdict on Cc1ccc(-c2nc(C#N)c(S(=O)(=O)n3nc(C)cc3N)o2)cc1 in this test?
inactive

What did the test return for CCOC(=O)c1c2c(n(Cc3ccc(Cl)cc3Cl)c1C)-c1nc[nH]c1C(=O)C2=O ?
inactive

Per the assay record, what outcome was assigned to CCN(Cc1ccc(F)cc1)c1ccc(CO)c(F)c1 ?
inactive

Tell me the assay call for O=C(Nc1cccc(-n2cc(-c3ccncc3)c(-c3cc(O)cc(Cl)c3)n2)c1)Nc1ccc(Cl)c(C(F)(F)F)c1 please.
inactive

---

# Tested on: CCRF-CEM leukemia
# test-details: NCI tumour cell line growth inhibition, 48 h
So I've got a bunch of molecules here, and I need their TGI values.

Determine its reported TGI: CN(C)CCNC(=O)c1cc([N+](=O)[O-])cc2c1Oc1ccccc1O2
> 100 µM

State its TGI for this molecule: NCCCCc1cc(O)c2c(c1O)C(=O)c1ccccc1C2=O
14.4 µM

Please report the measured TGI for CCn1c(SCC(=O)NNC(=S)Nc2ccc([N+](=O)[O-])cc2)nc2ccccc2c1=O
> 100 µM

Provide only the value of recorded TGI for O=c1cc(-c2ccccc2F)[nH]c2ccc(N3CCCC3)cc12
> 100 µM

Check the records and state TGI for COc1cc2ccccc2oc1=O
> 100 µM

// fetch TGI given entry CC(C)CCCC(C)[C@H]1CCC2[C@@H]3CCC4Nc5nocc5C[C@]4(C)C3CC[C@@]21C (some centres not stated)
36.9 µM

// fetch TGI given entry Cc1cc(Cl)ccc1Nc1nc(C(F)(F)F)ccc1C(=O)N/N=C/c1ccc(Cl)cc1
3.39 µM

Hello, please tell me recorded TGI for this one: COc1ccc2c(c1)[nH]c1c(/C=C/c3ccccc3)nccc12
> 100 µM

Could you please provide reported TGI for CCOc1ccc(/C(Cl)=C(\C=O)c2ccc(OC)c(OC)c2)cc1OCC ? Thanks!
> 100 µM

Give reported TGI value for COc1c(O)cc2oc(-c3ccc(O)cc3)cc(=O)c2c1O
65.1 µM

Using known records, supply TGI for COc1ccc(CNC(=O)NCn2cc(-c3ccccc3)nn2)cc1
> 100 µM

Using known records, supply TGI for COc1cccc2c1Cc1cc(-c3ccccc3)[n+](C)n1-2
9.69 µM

Tell us which TGI value is on record for Cn1c(O)c(C=Nc2ccccc2[N+](=O)[O-])c(=O)n(C)c1=O
> 100 µM

Please indicate TGI recorded for CCCc1cc(=O)[nH]c(-n2nc(C)cc2C)n1
26.5 µM

Give me measured TGI, please, for this molecule: O=C(NC(=O)c1cn(CCN(CCO)C(=O)NCCCCCCNC(=O)N(CCO)CCn2cc(C(=O)NC(=O)OCc3ccccc3)c(=O)[nH]c2=O)c(=O)[nH]c1=O)OCc1ccccc1
> 100 µM

Item Cc1ccc(C(CC(=O)c2ccccc2)C2C(=O)NC(=O)NC2=O)cc1 (configuration not stated) : provide TGI
> 100 µM

# return recorded TGI for input CN1CNc2nc(N)n(C)c(=O)c2C1
> 10 µM

Return TGI for the following molecule: O=c1c2nc3ccccc3c(=O)n2ncn1-c1ccccc1Cl
> 100 µM

Indicate the recorded TGI value for this molecule: CCOC(=O)C1=NN(c2ccc(C)cc2)C2=CC(C)=NN(C)C(=S)N21
> 100 µM

Give the reported value of TGI for this record: O=S(Nc1ccccc1)c1cccc(Cl)c1 (configuration not stated)
> 100 µM

Note down TGI recorded for Cc1cc(C(=C2C=CC(=Nc3ccccc3)C=C2)c2ccc(Nc3ccccc3)cc2)ccc1N
> 100 µM

Find the measured TGI of CCC1CN(C(=O)c2ccccc2)C(Cc2c[nH]c3ccccc23)C(=O)C1CC(=O)OC (configuration not stated) and report it.
> 100 µM
